// provenance: BigSolDB 2.1

assay_conditions: in n-butyl acetate, 328.2 K
measured_metric: solubility (mole fraction)
Just the number, please, no unit after it.

Suppose we examine the molecule "O=C(CCc1ccc(O)cc1)c1c(O)cc(O)cc1O" ; what solubility (mole fraction) value has been reported?
0.0346

---

assay_conditions: in water, 328.2 K
measured_metric: solubility (mole fraction)
Just the number, please, no unit after it.

Suppose we examine the compound "O=C(CCc1ccc(O)cc1)c1c(O)cc(O)cc1O" ; what solubility (mole fraction) value has been reported?
2.7e-05

---

assay_conditions: in n-butanol, 298.2 K
measured_metric: solubility (mole fraction)
Just the number, please, no unit after it.

Suppose we examine the compound "O=C(CCc1ccc(O)cc1)c1c(O)cc(O)cc1O" ; what solubility (mole fraction) value has been reported?
0.035

---

assay_conditions: in ethyl acetate, 328.2 K
measured_metric: solubility (mole fraction)

Suppose we examine the compound "O=C(CCc1ccc(O)cc1)c1c(O)cc(O)cc1O" ; what solubility (mole fraction) value has been reported?
0.037

---

assay_conditions: in isopropanol, 318.2 K
measured_metric: solubility (mole fraction)

Suppose we examine the molecule "O=C(CCc1ccc(O)cc1)c1c(O)cc(O)cc1O" ; what solubility (mole fraction) value has been reported?
0.0411

---

assay_conditions: in water, 318.2 K
measured_metric: solubility (mole fraction)
Just the number, please, no unit after it.

Suppose we examine the molecule "O=C(CCc1ccc(O)cc1)c1c(O)cc(O)cc1O" ; what solubility (mole fraction) value has been reported?
1.7e-05

---

assay_conditions: in n-hexanol, 298.2 K
measured_metric: solubility (mole fraction)
Just the number, please, no unit after it.

Suppose we examine the compound "O=C(CCc1ccc(O)cc1)c1c(O)cc(O)cc1O" ; what solubility (mole fraction) value has been reported?
0.0313

---

assay_conditions: in n-butyl acetate, 288.2 K
measured_metric: solubility (mole fraction)
Just the number, please, no unit after it.

Suppose we examine the compound "O=C(CCc1ccc(O)cc1)c1c(O)cc(O)cc1O" ; what solubility (mole fraction) value has been reported?
0.0258

---

assay_conditions: in n-propanol, 328.2 K
measured_metric: solubility (mole fraction)
Just the number, please, no unit after it.

Suppose we examine the molecule "O=C(CCc1ccc(O)cc1)c1c(O)cc(O)cc1O" ; what solubility (mole fraction) value has been reported?
0.0382

---

assay_conditions: in methanol, 328.2 K
measured_metric: solubility (mole fraction)

Suppose we examine the molecule "O=C(CCc1ccc(O)cc1)c1c(O)cc(O)cc1O" ; what solubility (mole fraction) value has been reported?
0.0317

---

assay_conditions: in sec-butanol, 318.2 K
measured_metric: solubility (mole fraction)
Just the number, please, no unit after it.

Suppose we examine the compound "O=C(CCc1ccc(O)cc1)c1c(O)cc(O)cc1O" ; what solubility (mole fraction) value has been reported?
0.0217

---

assay_conditions: in 1,4-dioxane, 328.2 K
measured_metric: solubility (mole fraction)
Just the number, please, no unit after it.

Suppose we examine the compound "O=C(CCc1ccc(O)cc1)c1c(O)cc(O)cc1O" ; what solubility (mole fraction) value has been reported?
0.0384

---

assay_conditions: in ethanol, 328.2 K
measured_metric: solubility (mole fraction)
Just the number, please, no unit after it.

Suppose we examine the molecule "O=C(CCc1ccc(O)cc1)c1c(O)cc(O)cc1O" ; what solubility (mole fraction) value has been reported?
0.0447

---

assay_conditions: in n-hexanol, 288.2 K
measured_metric: solubility (mole fraction)
Just the number, please, no unit after it.

Suppose we examine the molecule "O=C(CCc1ccc(O)cc1)c1c(O)cc(O)cc1O" ; what solubility (mole fraction) value has been reported?
0.0289
